# Tested on: T47D
# Measurement Description: Antiproliferative activity against human T47D cells under hypoxic condition
# Type: functional, cell-based
Observation Type: pIC50
Entry type: numeric. Quantity: pIC50, the -log10 of concentration in molar units.

{"columns": ["Compound", "pIC50"],
 "data": [
  ["C=C1CCCC(C)(C)C1CCC(C)CCC[C@@]1(C)CC[C@H]([C@H](C)C(=O)OC)OO1 (relative stereo) [DIACARNOXIDE A]", 4.57]
]}

[Q] If you can, please state the reported pIC50 value of C=C1CCCC(C)(C)C1CCC(C)CCC[C@@]1(C)CC[C@H]([C@H](C)C(=O)O)OO1 (relative stereo) [DIACARNOXIDE B] .
[A] 5.22
